Kindly state GI50 for each of the entries shown.
System: MDA-MB-435
Assay: NCI tumour cell line growth inhibition, 48 h
Activity calls are given as the source filed them. No stated cut-off is given here; in the data, active = GI50 up to about 1.1 µM and inactive = higher.

For the molecule Cc1nc2ccc(Br)cc2c(=O)n1-c1nnc(C(C)(C)C)s1 , the measured GI50 on MDA-MB-435 was > 10 µM (inactive)

The molecule COc1ccc(-c2cc(=O)c3c(OC)c(OC)c(OC)cc3o2)cc1 on MDA-MB-435: GI50 was 32.2 µM (inactive)

Sample COc1cc2c(c(OC)c1OC)C(=O)[C@@H]1[C@H]2N1C(=O)NCCCl , system: MDA-MB-435. Its GI50 is 32.6 µM (inactive)

# GI50 measured on MDA-MB-435 for item CC(C)(C)NCC(O)COc1cccc2[nH]c(C#N)cc12 (centres undefined) = > 100 µM (inactive)

Record for CN(NC(=O)CCCl)C1=NCCCCN1 under target or system MDA-MB-435: GI50 reported as > 100 µM (inactive)

Reported GI50 (MDA-MB-435) for entry CSc1ccc(/C=C2\N=C(c3ccccc3)N(c3nc4cc(Cl)c(F)cc4s3)C2=O)cc1 is 33 µM (inactive)

Readout GI50 for Cc1nnc(N)nc1/C=C/c1c(O)ccc2ccccc12 , test system MDA-MB-435, was 24.7 µM (inactive)

Summary: CCOC(=O)C(N)CSC(=O)NC (centres undefined) , MDA-MB-435, GI50 = 45 µM (inactive)

The recorded GI50 with MDA-MB-435 for CC1=NC(=Cc2cc(Br)cc(Br)c2)C(=O)N1n1c(-c2ccccc2)nc2ccccc2c1=O was 72.3 µM (inactive)

----------
Test system: EKVX
Experiment: NCI tumour cell line growth inhibition, 48 h
The source made the active and inactive calls. No stated cut-off is given here; in the data, active = GI50 up to about 1.1 µM and inactive = higher.
Entry note: the call must match one of TRUE = active, FALSE = inactive

Record request — test call for CC(C)(C)C1=CC(=N/N=c2\scc(-c3ccccc3)n2-c2ccccc2)C=C(C(C)(C)C)C1=O
FALSE

Kindly provide the recorded test outcome for the following compound: COC(CN(C(C)=O)C1CCC2(SCCS2)c2[nH]c3ccccc3c21)OC (stereo not given)
FALSE

// outcome(item) with item = CC(C)C(Sc1nc(N)nc2nc[nH]c12)C(=O)O (stereo not given)
FALSE

Check the results log: what was the call for Cc1ccc(S(=O)(=O)c2ccc([N+](=O)[O-])o2)cc1 ?
FALSE

// outcome(item) with item = CC(=O)OC1[C@H](OC(C)=O)C2=C(C)[C@@H](OC(C)=O)C[C@@]2(C(C)(C)O)[C@@H](OC(C)=O)[C@H]2[C@@]1(C)[C@@H](OC(C)=O)CC(OC(C)=O)[C@]21CO1 (stereo not given in full)
FALSE

Recorded test call requested for C#CC[C@@]12CC(=O)C[C@@H]1CCC1(C2)OCCO1.C#CC[C@]12CC(=O)CC[C@H]1CC(=O)C2
FALSE

Please share the test call associated with COc1cc(/C=N/Nc2nnc3c4ccccc4c4ncccc4c3n2)cc(OC)c1OC .
FALSE

Called result for COc1ccc(/C=C2\N=C3Sc4c([nH]cnc4=O)N3C2=O)cc1
FALSE

Tell me the recorded outcome of this test for N=C(N)N/N=C/c1c(-c2ccc([N+](=O)[O-])cc2)nc2sc(Cl)cn12 .
TRUE

Recorded test outcome, item COC(=O)c1cc(Br)c(Br)n1C
FALSE

Test call for this compound, please: COc1cccc(C2CC(=O)c3cc(N4CCCC4)ccc3N2)c1 (stereo not given)
TRUE

In this assay, the call recorded for O=c1[nH][nH]c(=O)n1Cc1ccccc1 was what?
FALSE

Given COc1ccc(C=O)c(N(C)C(=O)C(C)(C)C)c1 , state the outcome it received in this test.
FALSE

Just curious, what result did COC(=O)C1CC2(C)C=CC1N(C(=O)OCc1ccccc1)C2 (stereo not given) get here?
FALSE

Record request — test call for COC(=O)c1c(C)cccc1C1CN=NC12Cc1ccc(C)cc1C2=O (stereo not given)
FALSE

Recorded call for Cc1ccc(S(=O)(=O)N/N=C2/CC3CCC4CC2CC34)cc1 (stereo not given) ?
FALSE

Kindly provide the recorded test outcome for the following compound: CC#C[I+]c1ccccc1
FALSE

Which outcome was assigned to C(=N\NC1=NCCCN1)/c1ccc(-c2cn3cc(/C=N/NC4=NCCCN4)ccc3n2)cc1 in this test?
FALSE

Short answer needed: outcome of this test for CCCCCCCCCC(=O)Oc1cccc2onc(C)c12 ?
FALSE

# lookup: test call for CCOC(=O)c1c(N2CCOCC2)[nH]c(=O)c(C(c2ccc(Cl)c([N+](=O)[O-])c2)c2c(O)c(C(=O)OCC)c(N3CCOCC3)[nH]c2=O)c1O
FALSE

Hi, do you know how CN(CCNCc1cn(C)c2c1ccc1ccccc12)CCNCc1cn(C)c2c1ccc1ccccc12 came out in this test?
FALSE

Please share the test call associated with CCC(C)C(C(=O)N/N=C1/SCC(=O)N1c1ccccc1)C(=O)N/N=C1/SCC(=O)N1c1ccccc1 (stereo not given) .
FALSE

Call for entry CN(NC(=O)CCCl)C1=NCCCCN1 :
FALSE

Hi, sorry to bother you, what did the test record for C[C@]12CC/C(=N\OC(=O)Nc3ccccc3)C=C1CC[C@@H]1C2CC[C@@]2(C)C1CC[C@@H]2OC(=O)Nc1ccccc1 (stereo not given in full) ?
FALSE

Outcome logged for Cc1ccc(/N=N/C(=N/NC(=O)c2cc(Cl)ccc2O)c2ccc(N(CCC#N)CCC#N)cc2C)cc1 in this assay:
FALSE

----------
Test system: MCF7
Test: NCI tumour cell line growth inhibition, 48 h
Activity calls are given as the source filed them. Rule as the data show it: active = GI50 up to about 1.1 µM and inactive = higher.
Answer with one of the outcomes given here: y (active), n (inactive)

What outcome does the record of this test show for CC(=O)Nc1ccc2c(c1)/C(=C\c1ccc([N+](C)(C)C)cc1)c1ccccc1-2 ?
n

What call does the record list for COc1ccccc1C1=C2C(=O)N(C)C(c3ccccc3OC)=C2C(=O)N1C ?
n

Which outcome was assigned to Clc1ccc(-c2nc3cc(C45CC6CC(CC(C6)C4)C5)ccc3[nH]2)cc1 in this test?
n

Call for entry O=Cc1cc(C(=O)OCc2ccccc2)n(S(=O)(=O)c2ccccc2)c1 :
n

Test call for this compound, please: Cc1ccnc2nc(-c3cccc4ccccc34)cc(O)c12
y

Answer briefly: the call reported for COc1ccc(CC(C)NCC(O)c2ccc(O)c(NC=O)c2)cc1 (configuration not stated) in this assay.
n

For CC(C)CC1c2[nH]c3ccccc3c2C[C@H]2C(=O)NC(CCCCNC(=O)OC(C)(C)C)C(=O)N12 (some centres not stated) , which call appears in the assay record?
n

Tell me the assay call for NC1=NN(c2ccccc2)C2(O)c3ccncc3C3=NN(c4ccccc4)C(=O)C132 (configuration not stated) please.
n

Which outcome did this test record for the compound COC(=O)C1=CS/C(=C2\S[C@@H]3[C@H](S2)[C@H]2C=C[C@@H]3C2)S1 ?
n

Answer briefly: the call reported for COC(=O)C1(c2ccc(N(C)C)cc2OC)CCCN(C(=O)Oc2ccccc2[N+](=O)[O-])CCc2c1[nH]c1ccccc21 (configuration not stated) in this assay.
n

Query: recorded result category for Cc1ccc(NC2=NCCO2)c2c1CCC2 in this test
n

Recorded call for COc1cccc(CCCNC(=O)Cc2ccccc2CO)c1 ?
n

----------
Tested on: NCI-H23
Assay: NCI tumour cell line growth inhibition, 48 h
Calls of active or inactive are those of the source. Rule as the data show it: active = GI50 up to about 1.1 µM and inactive = higher.
Hello, when you answer, please use one of the following outcomes: 1 = active, -1 = inactive

// return assay outcome for CC1=NC(=Cc2cc(Br)cc(Br)c2)C(=O)N1n1c(-c2ccccc2)nc2ccccc2c1=O
-1

Could you please tell me the result logged for Clc1nc(Nc2nc3ccccc3[nH]2)nc(Cl)c1Cc1ccccc1 in this assay?
-1

Could you kindly confirm the outcome this assay logged for CC1(C)c2ccccc2C(=O)C12CCC(=O)CC2 ?
-1

Answer briefly: the call reported for C1=Nc2sc3c(c2C2=NCCN12)CCCC3 in this assay.
-1

What outcome does the record of this test show for COc1ccc(C2=C(N)c3c(OC)cccc3C2=O)cc1 ?
-1

I'd appreciate the recorded outcome for O=C(O)c1cc2ccccc2c(/N=N/c2ccc(S(=O)(=O)Nc3nccs3)cc2)c1O from this test.
-1

Record request — test call for S=P(c1ccccc1)(c1ccccc1)C1(C2(P(=S)(c3ccccc3)c3ccccc3)CC2)CC1
-1

Would you mind telling me which call this test gave COC(=O)c1c(C)cccc1C1CN=NC12Cc1ccc(C)cc1C2=O (configuration not stated) ?
-1

For Cc1ccccc1NC(=S)N/N=C(/c1ccccc1)c1ccccn1 , what call appears in the results of this test?
1

I'd appreciate the recorded outcome for O=C1C(N2CCCC2)=CC(=O)c2c(O)c(N3CCCC3)c(Cl)c(O)c21 from this test.
-1

So what was the verdict on COC(=O)C1=C(C)NC2(O)C=CC(=O)C3C(=O)N(c4ccccc4)C(=O)C132 (configuration not stated) in this test?
-1

Please indicate how the test categorized CN(NC(=O)CCCl)C1=NCCCCN1 .
-1

For ClCc1nnc2n1-c1ccc(Cl)cc1SC2 , which call appears in the assay record?
-1

Give the logged outcome of this assay for the following compound: O=C1c2nc3n(c2C(=O)c2c1nc1n2CCC1)CCC3
-1

Any idea what this test logged for COc1ccc(C2SCC(=O)N2c2ccc(-n3c(-c4ccccc4)nc4ccccc4c3=O)cc2)cc1 (configuration not stated) ?
-1

Answer briefly: the call reported for CC1=C/C(=N\N(C)C)C(C(O)(C(F)(F)F)C(F)(F)F)C(C)(C)C1 (configuration not stated) in this assay.
-1

Would you mind telling me which call this test gave COc1ccc(N/N=C2\C3=C(CCC(C)(C)O3)C(=O)c3ccccc32)cc1 ?
-1

Returns: the outcome recorded for O=C1CCCc2ccc([N+](=O)[O-])c(O)c21 in this assay.
-1

Please indicate how the test categorized CN1/C(=C/C=C/C=C/C=C2C(=O)c3ccccc3C2=O)C(C)(C)c2ccccc21 .
-1

// return assay outcome for O=c1[nH]c(-c2ccc(-c3nc4cc([N+](=O)[O-])ccc4c(=O)[nH]3)cc2)nc2cc([N+](=O)[O-])ccc12
-1

Would you mind telling me which call this test gave N=C(N)NCCCC(Nc1c2ccccc2nc2ccccc12)C(=O)O (configuration not stated) ?
-1

Would you mind telling me which call this test gave CC(C)(O)CO/N=C1\C(=C2\C(=O)Nc3ccccc32)Nc2ccccc21 ?
-1

Lab log entry: CC(=O)N1N=C(c2c(O)ccc3ccccc23)CC1C(=O)c1ccco1 (configuration not stated) — outcome as called in the assay?
-1

Query: recorded result category for COP(=O)(OC)[C@H](O)[C@H]1C[C@@H]1c1ccccc1 in this test
-1

Per the assay record, what outcome was assigned to CCOC(=O)c1c(N2CCOCC2)[nH]c(=O)c(C(c2ccc(Cl)c([N+](=O)[O-])c2)c2c(O)c(C(=O)OCC)c(N3CCOCC3)[nH]c2=O)c1O ?
-1

What did the test return for CN(N=O)C(=O)NNC(=O)N(C)N=O ?
-1

In this assay, the call recorded for CC(=O)c1cccc(NCn2nnc3ccccc32)c1 was what?
-1

Fill in: this test's call for Cc1cc2c(c(C)c1O)C(C)(C)CN2C(=O)C(C)(C)C is ___
-1

// param item: COc1c(I)c(OC)c2c(c1I)O[C@@H]1OCC[C@H]21 ; yields the recorded call
-1

What classification did CN(C)c1n/c(=N/c2cccc(Cl)c2)ss1 end up with in this test?
-1

Tell me the recorded outcome of this test for Oc1nnc(-c2ccc(F)cc2)cc1-c1ccccc1 .
-1

GET /call?item= COC(=O)c1ccc(NCC2=C(Br)C(=O)C=CC2=O)cc1Cl returns the recorded outcome of this test.
-1

Could you kindly confirm the outcome this assay logged for COc1ccc(-c2nnc3n(Cc4ccccc4)c4ccccc4n3c2=O)cc1 ?
-1

Assay result, entry CC(Nc1ccc(Cl)c(Cl)c1)c1ccncc1 (configuration not stated) — outcome?
-1

For Cc1c(N=NN(C)C)cc[n+]([O-])c1C , what call appears in the results of this test?
-1

Please state the recorded outcome for this compound: CC1=NN(C(=O)CC(=O)Nc2ccccc2)C(=O)C1/N=N/c1ccc(S(N)(=O)=O)cc1 (configuration not stated)
-1

What outcome does the record of this test show for O=c1ccn(CC2(CO)CC(Cc3ccccc3)C2)c(=O)[nH]1 (configuration not stated) ?
-1
